Ref: paper PMC6920776

Here the recorded pIC50 is given for each entry.
assay.name: DPPH radical scavenging assay
assay.conditions: 45 min in the dark, triplicate
Conceptually, pIC50 converts a concentration in mol/L into minus its log10.

# count of solved cases: 10
>  <compound>
O=Cc1coc2c(ccc3oc(C4=CCCCC4)cc32)c1=O

>  <pIC50>
4.80

$$$$
>  <compound>
O=c1c(C=NNc2ccc(C(F)(F)F)cc2)coc2c1ccc1oc(-c3ccccc3)cc12

>  <pIC50>
4.82

$$$$
>  <compound>
O=Cc1coc2c(ccc3oc(-c4ccc(F)cc4)cc32)c1=O

>  <pIC50>
5.12

$$$$
>  <compound>
O=Cc1coc2c(ccc3oc(-c4cccc(F)c4)cc32)c1=O

>  <pIC50>
4.56

$$$$
>  <compound>
O=c1c(C=NNc2ccc(C(F)(F)F)cc2)coc2c1ccc1oc(-c3cccc(Cl)c3)cc12

>  <pIC50>
4.49

$$$$
>  <compound>
COc1ccc(-c2cc3c(ccc4c(=O)c(C=O)coc43)o2)cc1

>  <pIC50>
4.84

$$$$
>  <compound>
COc1cc(OC)cc(-c2cc3c(ccc4c(=O)c(C=O)coc43)o2)c1

>  <pIC50>
5.08

$$$$
>  <compound>
O=Cc1coc2c(ccc3oc(-c4ccccc4)cc32)c1=O

>  <pIC50>
5.00

$$$$
>  <compound>
Cc1ccc(-c2cc3c(ccc4c(=O)c(C=NNc5ccc(C(F)(F)F)cc5)coc43)o2)cc1

>  <pIC50>
4.79

$$$$
>  <compound>
Cc1ccc(-c2cc3c(ccc4c(=O)c(C=O)coc43)o2)cc1

>  <pIC50>
4.94

$$$$

Quick one: pIC50 of `O=Cc1coc2c(ccc3oc(-c4ccc(Cl)cc4)cc32)c1=O` ?
4.70

Would you mind telling me what pIC50 value was observed for `O=Cc1coc2c(ccc3oc(-c4cccc(Cl)c4)cc32)c1=O` ?
4.54

Could you tell me which pIC50 is on file for O=C1O[C@H]([C@@H](O)CO)C(O)=C1O [Ascorbic acid, ascorbic acid, reference compound] ?
5.34

----------
assayed.target: soybean lipoxygenases-15 (LOX-15) (Glycine max)
Construct: purchased Cayman Chemicals 760700
assay.name: Soybean LOX-15 inhibitory assay
Type: biochemical
Reported IC50 is given for each of the following molecules.
Value expressed in µM; do not type the unit.

Some solved entries appear below for comparison.
>  <molecule>
Cc1ccc(-c2cc3c(ccc4c(=O)c(C=O)coc43)o2)cc1 [Compound 2h]

>  <assayed.target>
soybean lipoxygenases-15 (LOX-15) (Glycine max)

>  <units.of.measure>
µM

>  <IC50>
9.2

$$$$
>  <molecule>
O=c1c(C=NNc2ccc(C(F)(F)F)cc2)coc2c1ccc1oc(-c3ccccc3)cc12 [Compound 3a]

>  <assayed.target>
soybean lipoxygenases-15 (LOX-15) (Glycine max)

>  <units.of.measure>
µM

>  <IC50>
16.3

$$$$
>  <molecule>
O=Cc1coc2c(ccc3oc(-c4ccc(F)cc4)cc32)c1=O [Compound 2c]

>  <assayed.target>
soybean lipoxygenases-15 (LOX-15) (Glycine max)

>  <units.of.measure>
µM

>  <IC50>
14.3

$$$$
>  <molecule>
O=Cc1coc2c(ccc3oc(-c4ccccc4)cc32)c1=O [Compound 2a]

>  <assayed.target>
soybean lipoxygenases-15 (LOX-15) (Glycine max)

>  <units.of.measure>
µM

>  <IC50>
12.5

$$$$
>  <molecule>
O=Cc1coc2c(ccc3oc(-c4cccc(F)c4)cc32)c1=O [Compound 2b]

>  <assayed.target>
soybean lipoxygenases-15 (LOX-15) (Glycine max)

>  <units.of.measure>
µM

>  <IC50>
18.6

$$$$
>  <molecule>
O=c1c(C=NNc2ccc(C(F)(F)F)cc2)coc2c1ccc1oc(-c3cccc(Cl)c3)cc12 [Compound 3d]

>  <assayed.target>
soybean lipoxygenases-15 (LOX-15) (Glycine max)

>  <units.of.measure>
µM

>  <IC50>
11.8

$$$$

Return reported IC50; argument: COc1cc(OC)cc(-c2cc3c(ccc4c(=O)c(C=O)coc43)o2)c1 [Compound 2g]
10.6

----------
Measured IC50 values are reported for all entries that follow.
assayed.target: AChE (Homo sapiens, UniProt P22303)
Sequence (P22303 32-614): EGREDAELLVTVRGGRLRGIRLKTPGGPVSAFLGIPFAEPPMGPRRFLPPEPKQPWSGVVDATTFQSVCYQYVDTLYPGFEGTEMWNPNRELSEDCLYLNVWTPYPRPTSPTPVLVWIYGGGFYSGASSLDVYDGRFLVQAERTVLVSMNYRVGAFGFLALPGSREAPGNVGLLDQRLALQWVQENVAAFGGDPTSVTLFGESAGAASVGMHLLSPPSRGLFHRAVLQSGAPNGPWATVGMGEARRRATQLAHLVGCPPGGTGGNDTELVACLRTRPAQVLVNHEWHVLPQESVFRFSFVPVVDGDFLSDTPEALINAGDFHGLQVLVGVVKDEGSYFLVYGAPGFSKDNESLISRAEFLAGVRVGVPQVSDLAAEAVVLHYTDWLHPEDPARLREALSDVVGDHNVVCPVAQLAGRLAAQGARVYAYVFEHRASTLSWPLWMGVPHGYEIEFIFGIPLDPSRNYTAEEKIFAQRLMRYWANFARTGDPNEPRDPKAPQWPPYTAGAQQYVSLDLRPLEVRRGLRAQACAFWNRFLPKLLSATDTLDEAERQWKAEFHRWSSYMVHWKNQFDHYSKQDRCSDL
assay.name: biochemical
assay.conditions: recombinant human AChE, Ellman's method, triplicate
Write it as a number; the unit µM goes unstated.

>  <compound>
COc1ccc(-c2cc3c(ccc4c(=O)c(C=O)coc43)o2)cc1 [Compound 2f]

>  <IC50 (µM)>
34.2

$$$$
>  <compound>
O=Cc1coc2c(ccc3oc(-c4ccc(Cl)cc4)cc32)c1=O [Compound 2e]

>  <IC50 (µM)>
27.1

$$$$
>  <compound>
O=Cc1coc2c(ccc3oc(C4=CCCCC4)cc32)c1=O [Compound 2i]

>  <IC50 (µM)>
15.3

$$$$
>  <compound>
O=Cc1coc2c(ccc3oc(-c4ccccc4)cc32)c1=O [Compound 2a]

>  <IC50 (µM)>
25.1

$$$$
>  <compound>
O=c1c(C=NNc2ccc(C(F)(F)F)cc2)coc2c1ccc1oc(-c3cccc(Cl)c3)cc12 [Compound 3d]

>  <IC50 (µM)>
24.3

$$$$

IC50 of Cc1ccc(-c2cc3c(ccc4c(=O)c(C=NNc5ccc(C(F)(F)F)cc5)coc43)o2)cc1 [Compound 3h] on AChE (Homo sapiens, UniProt P22303)?
9.1

Enter reported IC50 observed with AChE (Homo sapiens, UniProt P22303) for COc1cc(OC)cc(-c2cc3c(ccc4c(=O)c(C=O)coc43)o2)c1 [Compound 2g]
25.3

Entry O=Cc1coc2c(ccc3oc(-c4ccc(F)cc4)cc32)c1=O [Compound 2c] , system AChE (Homo sapiens, UniProt P22303): what IC50 was measured?
30.4

// map Cc1ccc(-c2cc3c(ccc4c(=O)c(C=O)coc43)o2)cc1 [Compound 2h] to recorded IC50 (system: AChE (Homo sapiens, UniProt P22303))
20.9

Record O=c1c(C=NNc2ccc(C(F)(F)F)cc2)coc2c1ccc1oc(-c3ccccc3)cc12 [Compound 3a] : what is its IC50 with AChE (Homo sapiens, UniProt P22303)?
15.4

State its IC50 on AChE (Homo sapiens, UniProt P22303): O=Cc1coc2c(ccc3oc(-c4cccc(F)c4)cc32)c1=O [Compound 2b]
15.2

----------
assayed.target: UniProt:P22303
assay.name: biochemical
assay.conditions: SI = IC50 (AChE)/IC50 (BChE)
Listing of entries alongside the reported Selectivity index (SI).
// return a plain number; no unit text

Record excerpt, results attached:
>  <molecule>
O=Cc1coc2c(ccc3oc(-c4ccc(F)cc4)cc32)c1=O [Compound 2c]

>  <readout.number>
1.1

$$$$
>  <molecule>
COc1cc(OC)cc(-c2cc3c(ccc4c(=O)c(C=O)coc43)o2)c1 [Compound 2g]

>  <readout.number>
1.1

$$$$
>  <molecule>
Cc1ccc(-c2cc3c(ccc4c(=O)c(C=O)coc43)o2)cc1 [Compound 2h]

>  <readout.number>
0.8

$$$$
>  <molecule>
O=Cc1coc2c(ccc3oc(-c4cccc(F)c4)cc32)c1=O [Compound 2b]

>  <readout.number>
1.7

$$$$

Please look at the following molecule next.
Fill in the blank: the reported Selectivity index (SI) of O=Cc1coc2c(ccc3oc(-c4ccccc4)cc32)c1=O [Compound 2a] is ____.
0.8

----------
assayed.target: soybean lipoxygenases-15 (LOX-15) (Glycine max, UniProt P08170)
Construct: purchased Cayman Chemicals 760700
Sequence (P08170 whole entry): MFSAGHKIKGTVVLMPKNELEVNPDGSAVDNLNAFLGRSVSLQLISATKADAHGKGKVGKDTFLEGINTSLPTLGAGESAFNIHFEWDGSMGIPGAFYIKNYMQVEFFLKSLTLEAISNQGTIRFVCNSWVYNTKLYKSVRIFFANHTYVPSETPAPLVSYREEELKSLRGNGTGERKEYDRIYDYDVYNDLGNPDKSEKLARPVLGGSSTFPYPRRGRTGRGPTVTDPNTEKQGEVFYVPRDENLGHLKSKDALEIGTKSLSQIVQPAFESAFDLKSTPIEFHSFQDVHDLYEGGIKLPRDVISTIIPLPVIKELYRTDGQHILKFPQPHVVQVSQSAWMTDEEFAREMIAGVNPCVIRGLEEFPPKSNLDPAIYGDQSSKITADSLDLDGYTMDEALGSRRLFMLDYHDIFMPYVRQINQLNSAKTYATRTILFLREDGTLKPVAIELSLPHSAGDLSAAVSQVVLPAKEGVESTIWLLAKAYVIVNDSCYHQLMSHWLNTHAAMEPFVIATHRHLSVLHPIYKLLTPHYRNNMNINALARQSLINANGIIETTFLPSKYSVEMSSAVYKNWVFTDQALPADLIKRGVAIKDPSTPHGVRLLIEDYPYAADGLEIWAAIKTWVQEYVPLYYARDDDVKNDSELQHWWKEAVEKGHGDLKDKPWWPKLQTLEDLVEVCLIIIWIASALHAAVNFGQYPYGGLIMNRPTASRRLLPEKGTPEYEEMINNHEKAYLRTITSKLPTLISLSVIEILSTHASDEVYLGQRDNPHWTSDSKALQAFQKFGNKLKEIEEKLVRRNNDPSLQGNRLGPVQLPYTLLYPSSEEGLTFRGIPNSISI
assay.name: Soybean LOX-15 inhibitory assay
Type: biochemical
property.measured: pIC50
pIC50 is a log-scale quantity: -log10 of the concentration expressed in molar.

>  <chemical.string>
O=Cc1coc2c(ccc3oc(-c4cccc(Cl)c4)cc32)c1=O

>  <property.measured>
pIC50

>  <readout.number>
4.64

$$$$
>  <chemical.string>
COc1ccc(-c2cc3c(ccc4c(=O)c(C=O)coc43)o2)cc1

>  <property.measured>
pIC50

>  <readout.number>
5.09

$$$$

Which pIC50 reading was recorded for the compound `O=Cc1coc2c(ccc3oc(-c4ccc(Cl)cc4)cc32)c1=O` ?
4.82

Request the reported pIC50 associated with `O=Cc1coc2c(ccc3oc(C4=CCCCC4)cc32)c1=O`
4.67

Find the recorded pIC50 belonging to `Cc1ccc(-c2cc3c(ccc4c(=O)c(C=NNc5ccc(C(F)(F)F)cc5)coc43)o2)cc1` and report it.
4.73

----------
assayed.target: COX-2 (Homo sapiens)
Sequence (P35354 18-604): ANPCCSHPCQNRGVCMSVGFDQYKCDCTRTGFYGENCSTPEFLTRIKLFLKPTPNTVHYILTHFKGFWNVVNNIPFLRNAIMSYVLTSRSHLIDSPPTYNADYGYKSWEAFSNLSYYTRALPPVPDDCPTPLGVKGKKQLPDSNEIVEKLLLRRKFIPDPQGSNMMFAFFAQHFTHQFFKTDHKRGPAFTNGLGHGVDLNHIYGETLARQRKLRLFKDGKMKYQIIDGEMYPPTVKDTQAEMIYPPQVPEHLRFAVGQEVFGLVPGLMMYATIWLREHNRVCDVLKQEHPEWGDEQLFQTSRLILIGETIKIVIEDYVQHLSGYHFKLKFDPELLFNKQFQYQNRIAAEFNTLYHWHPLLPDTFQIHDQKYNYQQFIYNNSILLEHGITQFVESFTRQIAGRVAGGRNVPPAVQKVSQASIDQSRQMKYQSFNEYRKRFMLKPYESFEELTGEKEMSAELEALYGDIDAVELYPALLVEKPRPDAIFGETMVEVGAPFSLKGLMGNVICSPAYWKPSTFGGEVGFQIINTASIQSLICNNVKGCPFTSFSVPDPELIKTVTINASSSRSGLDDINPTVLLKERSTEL
Quick reference: pIC50 of the listed items.
# pIC50: negative log10 of molar concentration; output just the value

Example results:
>  <compound>
O=c1c(C=NNc2ccc(C(F)(F)F)cc2)coc2c1ccc1oc(-c3ccccc3)cc12 [Compound 3a]

>  <property.measured>
pIC50

>  <readout.number>
4.53

$$$$
>  <compound>
COc1cc(OC)cc(-c2cc3c(ccc4c(=O)c(C=O)coc43)o2)c1 [Compound 2g]

>  <property.measured>
pIC50

>  <readout.number>
4.63

$$$$

Please examine the following record next.
Recorded pIC50 of O=c1c(C=NNc2ccc(C(F)(F)F)cc2)coc2c1ccc1oc(-c3cccc(Cl)c3)cc12 [Compound 3d] , please.
4.52
